Test system: Staphylococcus aureus
Experiment Description: Antibacterial activity against methicillin sensitive Staphylococcus aureus 107 assessed as inhibition of bacterial growth at 0.5 ug/ml incubated for 18 to 20 hrs by CLSI protocol based broth microdilution method
Assay type: functional, organism-based
Condition Context: dose 0.5 µg/ml, time 18-20 hrs
Active and inactive are the calls of the source. The calls are words filed in the database; no cut-off is given here.

Structure String | Activity
CN[C@H](CC(C)C)C(=O)N[C@H]1C(=O)N[C@@H](CC(N)=O)C(=O)N[C@H]2C(=O)N[C@H]3C(=O)N[C@H](C(=O)N[C@H](C(=O)O)c4cc(O)cc(O)c4-c4cc3ccc4O)[C@H](O)c3ccc(c(Cl)c3)Oc3cc2cc(c3O[C@@H]2O[C@H](CO)[C@@H](O)[C@H](O)[C@H]2O[C@H]2C[C@](C)(N)[C@H](O)[C@H](C)O2)Oc2ccc(cc2Cl)[C@H]1O | Active
CCCCCC#Cc1ccc(NC(=O)Nc2ccc(/C(C)=N/NC(=N)N)cc2)cc1 | Active

----------
Experiment Description: Cytotoxicity against human HaCaT cells assessed as tolerance by measuring cell viability upto 128 ug/ml incubated for 24 hrs by MTS assay relative to control
Assay type: toxicity, cell-based
Condition Context: up to 128 µg/mL, read-out: Activity
Recorded Endpoint: viability at 24 h (%)
Expressed in %, but write only the number.

Challenge: Form field: reported viability at 24 h of "C/C(=N\NC(=N)N)c1ccc(NC(=O)Nc2ccc(C#CC(C)(C)O)cc2)cc1"
Response given: 100

----------
Experiment Description: Cytotoxicity against African green monkey Vero cells assessed as tolerance by measuring cell viability upto 128 ug/ml incubated for 24 hrs by MTS assay relative to control
Format: toxicity, cell-based
Condition Context: chlorocebus sabaeus, up to 128 µg/mL, read-out: Activity
Recorded Endpoint: viability at 24 h (%)
Expressed in %, but write only the number.

Challenge: Form field: reported viability at 24 h of "C/C(=N\NC(=N)N)c1ccc(NC(=O)Nc2ccc(C#CC3(N)CCCCC3)cc2)cc1"
Response given: 100

----------
Experiment Description: Hemolytic activity in rabbit erythrocytes at 16 ug/ml incubated for 30 mins by absorbance based assay
Assay type: toxicity, cell-based, Oryctolagus cuniculus, Erythrocyte
Condition Context: at 16 µg/mL, read-out: Activity
Recorded Endpoint: hemolysis at 0.5 h, 16 ug/ml (%)
Expressed in %, but write only the number.

Challenge: Form field: reported hemolysis at 0.5 h, 16 ug/ml of "C/C(=N\NC(=N)N)c1ccc(NC(=O)Nc2ccc(C#Cc3ccccc3)cc2)cc1"
Response given: 2
